# Test Method Notes: solvent given as SMILES
# Setup Conditions: in CCOC(C)=O
Entries and their log10 fluorescence lifetime
Would you kindly interpret these values as log10 of fluorescence lifetime expressed in ns?

// below: answered compounds
# Compound, log10 fluorescence lifetime
rows = [
    ("CSC1=C2C=C(c3cc4n(c3)[B-](F)(F)[N+]3=CC=CC3=C4c3c(C)cc(C)cc3C)C(C)=[N+]2[B-](F)(F)n2c(C)ccc21", -0.01),
    ("CC(=O)Nc1ccc2c3c(cccc13)C(=O)c1ccccc1-2", 0.82),
    ("COc1ccc(/C=C/C2=CC(/C=C/c3ccc(OC)c4ccccc34)=[O+][B-](F)(F)O2)c2ccccc12", 0.18),
    ("C#CCNC1=C2C=CC=[N+]2[B-](F)(F)n2cccc21", 0.71),
    ("COc1cc2c(cc1-c1ccccc1)Cc1c3c(c4c(c1-2)-c1cc(OC)c(-c2ccccc2)cc1C4)C(=O)N(CCC(C)C)C3=O", 0.60),
    ("F[B-]1(F)n2c(cc3c4ccccc4oc32)C(c2ccccc2)=C2C=c3c(oc4ccccc34)=[N+]21", 0.61),
    ("CCC1=C(C)C2=C(C)c3c(I)c(I)c(I)n3[B-](F)(F)[N+]2=C1C", -0.62),
    ("CCC1=C(C)C2=C(C)c3c(I)c(I)cn3[B-](F)(F)[N+]2=C1C", -0.80),
    ("c1ccc(Nc2nc(Nc3ccccc3)nc(Nc3ccc4c5cccc6cccc(c7cccc3c74)c65)n2)cc1", 0.56),
    ("CN1CCN(c2ccc3c4c(cccc24)C(=O)c2ccccc2-3)CC1", 0.99),
]

Dear colleague, I am looking for the recorded log10 fluorescence lifetime of the following compound: COc1ccc(/C=C/C2=[O+][B-](F)(F)OC(/C=C/c3ccc(OC)c4ccccc34)=C2c2ccccc2)c2ccccc12
0.11

Okay, and c1ccc2c(-n3cnc4ccccc43)cccc2c1 ?
0.66

* * *

Entries and their log10 of fluorescence lifetime
# Test Method Notes: solvent given as SMILES
# Setup Conditions: in ClCCl
Would you kindly interpret these values as log10 of fluorescence lifetime expressed in ns?

Dear colleague, I am looking for the recorded log10 of fluorescence lifetime of the following compound: Cc1ccc(-c2cc(-c3ccccc3Cl)c3c(N)nc(N4CCCC4)c(C#N)c3n2)cc1
1.14

Okay, and O=C1c2ccccc2C2=Nc3cccc4cccc(c34)N12 ?
-0.07

Okay, and COc1ccc(C#Cc2c3cc4ccccc4cc3c(C#Cc3ccc(OC)cc3)c3cc4sc(C)cc4cc23)cc1 ?
1.07

* * *

# Test Method Notes: solvent given as SMILES
# Setup Conditions: in C1CCCCC1
Measured Endpoint: fluorescence lifetime (ns)
Give the quantity in ns, number only.

# Smiles Text, Value Measured
measured = [
    ("CC1=[N+]2C(=C(c3ccc(N(c4ccccc4)c4ccccc4)cc3)c3ccc(C)n3[B-]2(F)F)C=C1c1cc2n(c1)[B-](F)(F)[N+]1=CC=CC1=C2c1c(C)cc(C)cc1C", 2.6),
    ("Cc1cccc(-c2cccc(C)c2)c1", 18),
    ("CN(C)c1ccc2nc(-c3ccc(C=C4C(=O)c5ccccc5C4=O)cc3)sc2c1", 0.41),
    ("COc1ccc2c(c1)c1c(OC)c3ccccc3c(OC)c1n2C", 24.1),
]

Dear colleague, I am looking for the recorded fluorescence lifetime of the following compound: COc1c2ccccc2c(OC)c2c1c1cccc(OC)c1n2C
21.8

Okay, and O=S1(=O)c2ccc(-c3c4ccccc4cc4ccccc34)cc2-c2cc(-c3c4ccccc4cc4ccccc34)ccc21 ?
3.2

Okay, and c1ccc2c(-n3cnc4ccccc43)cccc2c1 ?
5.1

Okay, and C#CCNC1=C2C=C(c3cc4n(c3)[B-](F)(F)[N+]3=CC=CC3=C4c3c(C)cc(C)cc3C)C(C)=[N+]2[B-](F)(F)n2c(C)ccc21 ?
2.3

* * *

# Test Method Notes: solvent given as SMILES
# Setup Conditions: in Cc1ccccc1
Is fluorescence lifetime at least 4 ns? Then label 1. If not, label 0.

Item N#Cc1c(-n2c3ccccc3c3cc(Br)ccc32)c(-n2c3ccccc3c3cc(Br)ccc32)c(C#N)c(-n2c3ccccc3c3cc(Br)ccc32)c1-n1c2ccccc2c2cc(Br)ccc21 with fluorescence lifetime of 4 ns or above?
label 0

Okay, and CCCCCCCCCCCCn1cccc1/C=C/c1ccc(/C=C/c2cccn2CCCCCCCCCCCC)cc1 ?
label 0

Okay, and CCN(CC)c1ccc(C=Cc2nc3nc4ccccc4nc3s2)cc1 ?
label 0

Okay, and Cc1nnc(-c2cc(-c3nnc(C)o3)c(-n3c4ccccc4c4ccccc43)cc2-n2c3ccccc3c3ccccc32)o1 ?
label 1

Okay, and COc1cc2c(cc1-c1ccccc1)Cc1c3c(c4c(c1-2)-c1cc(OC)c(-c2ccccc2)cc1C4)C(=O)N(CCC(C)C)C3=O ?
label 0

* * *

# Test Method Notes: solvent given as SMILES
# Setup Conditions: in C1CCOC1
Measured Endpoint: fluorescence lifetime (ns)
Give the quantity in ns, number only.

# Smiles Text, fluorescence lifetime (ns)
records = [
    ("COc1ccc2cc(-c3ccc([N+](=O)[O-])cc3)ccc2c1", 0.33),
    ("COc1ccc(-c2nc3ccccc3nc2/C=C/N2CCCC2)s1", 2.79),
]

Consider now this further compound.
Dear colleague, I am looking for the recorded fluorescence lifetime of the following compound: N#Cc1ccc(/C=C/c2ccc3ccc4cccc5ccc2c3c45)cc1
1.82

* * *

# Test Method Notes: solvent given as SMILES
# Setup Conditions: in Cc1ccccc1
Is fluorescence lifetime at least 5 ns? Then True. If not, False.

# Compound, Group Label
rows = [
    ("CN(C)c1ccc(-c2nc3c(c4c2-c2ccccc2CC4)-c2ccccc2CC3)cc1", "False"),
    ("CCOC(=O)CN1C(=O)C2=C(c3ccc(N4CCCCC4)cc3)N(CC(=O)OCC)C(=O)C2=C1c1ccc(C#N)cc1", "False"),
    ("FC(F)(F)c1ccc(-c2nnc(-c3cc(-n4c5ccccc5c5ccccc54)c(-n4c5ccccc5c5ccccc54)cc3-c3nnc(-c4ccc(C(F)(F)F)cc4)o3)o2)cc1", "True"),
    ("COC(=O)C(Cc1ccc2oc(-c3ccc(-n4c5ccccc5c5ccccc54)cc3)nc2c1)NC(=O)OC(C)(C)C (stereo not drawn)", "False"),
    ("COc1ccc(C2=C(c3ccc(C)cc3)C(c3ccccc3)=[N+]3C2=Nc2c(-c4ccc(OC)cc4)c(-c4ccc(C)cc4)c(-c4ccccc4)n2[B-]3(F)F)cc1", "False"),
]

Item O=C1c2ccc(N(c3ccc(-c4ccccc4)cc3)c3ccc(-c4ccccc4)cc3)cc2C(=O)c2ccc(N(c3ccc(-c4ccccc4)cc3)c3ccc(-c4ccccc4)cc3)cc21 with fluorescence lifetime of 5 ns or above?
False

Okay, and CCCCC(CC)CN1C(=O)C2=C(c3ccc(-c4ccc(C5=C6C(C)=CC(C)=[N+]6[B-](F)(F)n6c(C)cc(C)c65)cc4)s3)N(CC(CC)CCCC)C(=O)C2=C1c1ccc(-c2ccc(C3=C4C(C)=CC(C)=[N+]4[B-](F)(F)n4c(C)cc(C)c43)cc2)s1 (stereo not drawn) ?
False

Okay, and N#Cc1c(-n2c3ccccc3c3ccccc32)c(-n2c3ccccc3c3ccccc32)c(C#N)c(-n2c3ccccc3c3ccccc32)c1-n1c2ccccc2c2ccccc21 ?
True

Okay, and C[Si](C)(C)C#Cc1cc2ccc3cc(C#C[Si](C)(C)C)cc4ccc(c1)c2c34 ?
True

Okay, and CN(C)c1ccc(-c2c(/C=C3/C=Cc4ccccc4N3C)c(=O)c2=O)cc1 ?
False

Okay, and COc1ccc(C2=C(c3ccc(-c4ccccc4)cc3)C(c3ccccc3)=[N+]3C2=Nc2c(-c4ccc(OC)cc4)c(-c4ccc(-c5ccccc5)cc4)c(-c4ccccc4)n2[B-]3(F)F)cc1 ?
False

* * *

# Test Method Notes: solvent given as SMILES
# Setup Conditions: in ClC(Cl)Cl
Classify on fluorescence lifetime using band 1 (below 2 ns), band 2 (2 ns to below 4 ns), band 3 (4 ns or more)

# Compound, Group Label
records = [
    ("c1ccc2c(-c3cc(-c4nccs4)nc(-c4nccs4)c3)c3ccccc3cc2c1", "band 2"),
]

// bin(item) where item = COc1ccc(N(c2ccc(OC)cc2)c2cc3ccc4cc(B(c5c(C)cc(C)cc5C)c5c(C)cc(C)cc5C)cc5ccc(c2)c3c45)cc1
band 3

Okay, and N#Cc1ccc(/C=C/c2ccc3ccc4cccc5ccc2c3c45)cc1 ?
band 1

Okay, and C[N+]1=c2ccc3c(c2C(C)(C)CC1)Oc1cc2c(cc1C=3c1ccccc1C(=O)O)C(c1ccccc1C(=O)O)=c1ccc3c(c1O2)C(C)(C)CC[N+]=3C ?
band 2

Okay, and c1ccc2c(c1)cc(-c1cc(-c3nccs3)nc(-c3nccs3)c1)c1ccccc12 ?
band 2

Okay, and Cc1cc(C)c(C2=C3C=CC=[N+]3[B-]3(c4ccccc4)Oc4cc(O)cc5c6ccc(C)cc6c6cc2n3c6c45)c(C)c1 (stereo not drawn) ?
band 2

Okay, and O=C1c2ccc3c4c(NC5CCCCC5)cc5c6c(ccc(c7c(NC8CCCCC8)cc(c2c37)C(=O)N1C1CCCCC1)c64)C(=O)N(C1CCCCC1)C5=O ?
band 1
